The reader will find reported GI50 values listed item by item below.
Tested on: MDA-MB-231
Assay: NCI tumour cell line growth inhibition, 48 h
Calls of active or inactive are those of the source. Rule as the data show it: active = GI50 up to about 1.1 µM and inactive = higher.

{"compound": "Cc1c(C(=O)OCc2ccccc2)[n+]([O-])c2cc(F)c(F)cc2[n+]1[O-]", "GI50": "1.8 µM (inactive)"}
{"compound": "COc1ccc(OC)c2sc(N3C(=O)/C(=C/c4ccc(SC)cc4)N=C3c3ccccc3)nc12", "GI50": "> 100 µM (inactive)"}
{"compound": "Clc1ccc(CSc2ncnc3c2ncn3C2CCCCO2)cc1 (stereo not given)", "GI50": "24.5 µM (inactive)"}
{"compound": "COC(=O)CC1(O)C=CC(=O)C=C1", "GI50": "2.66 µM (inactive)"}
{"compound": "Cc1ccc(S(=O)(=O)NC(=O)NCCc2ccc(O)c(O)c2)cc1", "GI50": "> 100 µM (inactive)"}
{"compound": "Cc1c2ccncc2c(C)c2c1sc1ccccc12", "GI50": "16.5 µM (inactive)"}
{"compound": "CCOC(=O)[C@H]1C[C@@H](C(=O)c2ccccc2)N2N=C(c3ccc(Br)cc3)C=C[C@H]12", "GI50": "> 100 µM (inactive)"}
{"compound": "CCOC(=O)/C=C(/C(=O)OCC)n1cnc2c(=O)[nH]c(NC(C)=O)nc21", "GI50": "> 100 µM (inactive)"}
{"compound": "COC(=O)/C=C(/C(=O)OC)c1c(C)c(C)c2c(C)cc(C)cc(C)c1-2", "GI50": "18.1 µM (inactive)"}
{"compound": "Nc1ncnc2c1ncn2C1CC(O)C(CO)O1 (stereo not given)", "GI50": "> 100 µM (inactive)"}
{"compound": "C[C@@H](c1ccccc1)N1CN(C(=O)OCc2ccccc2)C(CO)C1=O (stereo not given in full)", "GI50": "87.3 µM (inactive)"}
{"compound": "Nc1c(C(=O)O)nnc2cc(Cl)c(Cl)cc12", "GI50": "> 100 µM (inactive)"}
{"compound": "CN(C)CCCNC(=O)CNC(=O)c1cc(NC(=O)c2cc(NC(=O)c3cc(NC(=O)CCNC(=O)c4cc(NC(=O)c5cc(NC(=O)c6nccn6C)cn5C)cn4C)cn3C)cn2C)cn1C", "GI50": "> 100 µM (inactive)"}
{"compound": "Cn1c(=O)[nH]c2nccnc2c1=O", "GI50": "> 10 µM (inactive)"}
{"compound": "CON(C)c1nc(N(C)OC)nc(N(C)OC)n1", "GI50": "> 10 µM (inactive)"}
{"compound": "CC(=O)O[C@H]1C[C@H]2[C@@H]([C@H](OC(C)=O)C[C@@H]3CC4(CC[C@@]32C)OOC2(CCCCC2)OO4)[C@@H]2CC[C@H]([C@H](C)CCC(=O)O)[C@@]12C", "GI50": "14.1 µM (inactive)"}
{"compound": "COc1ccc(C2SCC(=O)N2c2ccc(-c3ccc(-n4c(-c5ccccc5)nc5ccccc5c4=O)cc3)cc2)cc1 (stereo not given)", "GI50": "54.6 µM (inactive)"}
{"compound": "CC[P+]1(c2ccccc2)[C@@H](C)CC[C@@H]1C", "GI50": "> 100 µM (inactive)"}
{"compound": "CCCCc1ccc(NC(=N)N)cc1", "GI50": "28.9 µM (inactive)"}
{"compound": "CCN(CC)CCNC(=O)c1nn(-c2ccc(Cl)cc2)c2c1CCc1cc(OC)ccc1-2", "GI50": "12.1 µM (inactive)"}

Where do the numbers come from? From ChEMBL document CHEMBL1201862.
